- tested.target: human PD-1 / PD-L1-Ig binding on Jurkat cell line over-expressing human PD-1 (Jurkat-PD-1) (Homo sapiens)
- Construct: expressed in transfected cells; host or cells: Jurkat
- Sequence (Q15116 25-288): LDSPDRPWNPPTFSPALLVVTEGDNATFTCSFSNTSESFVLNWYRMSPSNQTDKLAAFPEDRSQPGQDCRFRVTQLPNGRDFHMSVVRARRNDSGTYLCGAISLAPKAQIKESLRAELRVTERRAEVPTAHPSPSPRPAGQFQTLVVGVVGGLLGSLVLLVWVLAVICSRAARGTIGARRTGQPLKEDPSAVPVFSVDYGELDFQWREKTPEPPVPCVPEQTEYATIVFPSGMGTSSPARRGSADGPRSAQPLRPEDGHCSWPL
- protocol.text: Jurkat-PD-1 Cell Binding High-Content Screening Assay (CBA)
- Assay type: cell-based
- condition.set: Jurkat-PD-1 cells, PE-labeled PD-L1-Ig 20 nM final; read-out: Jurkat HPD1_PDL1 IC50
Where a SMILES comes first, the peptide text is derived from it. Bridges are numbered along the chain shown (N, C = ends). [ ]: non-standard residue; d: D form. Bip = N[C@@H](Cc1ccc(-c2ccccc2)cc1)C(=O)O; Orn = NCCC[C@H](N)C(=O)O; Dap = NC[C@H](N)C(=O)O
Quick reference: IC50 of the listed items.
# unit: nM | format: bare number

CC(C)C[C@H]1NC(=O)[C@H](CCCN)NC(=O)[C@H](C(C)C)NC(=O)[C@H](Cc2ccc(-c3ccccc3)cc2)NC(=O)[C@H](C(C)C)NC(=O)[C@H](Cc2cccc(Cl)c2)NC(=O)[C@H](CC(=O)O)NC(=O)[C@H](Cc2ccc(OCC(=O)O)cc2)NC(=O)[C@H](Cc2ccncc2)NC(=O)CSC[C@@H](C(=O)N[C@@H](C)C(N)=O)NC(=O)[C@H]([C@@H](C)O)NC(=O)[C@H](C(C)C)NC(=O)[C@H](CC2CCCCC2)NC(=O)[C@H](CCN)NC1=O :: 16.6

query: Query (molecule): CC(C)C[C@H]1NC(=O)[C@H](CCCN)NC(=O)[C@H](CCC(=O)O)NC(=O)[C@H](Cc2ccc(-c3ccccc3)cc2)NC(=O)[C@H](C(C)C)NC(=O)[C@H](Cc2c[nH]c3ccccc23)NC(=O)[C@H](CC(=O)O)NC(=O)[C@H](Cc2ccc(N)cc2)NC(=O)[C@H](CN)NC(=O)CSC[C@@H](C(=O)N[C@@H](C)C(N)=O)NC(=O)[C@H]([C@@H](C)O)NC(=O)[C@H](C(C)C)NC(=O)[C@H](CC2CCCCC2)NC(=O)[C@H](CCN)NC1=O ; field requested: IC50
result: 16

query: Query (molecule): CCCC[C@H]1NC(=O)[C@H](CCCN)NC(=O)[C@H](CCCNC(N)=O)NC(=O)[C@H](Cc2ccc(-c3ccccc3)cc2)NC(=O)[C@H](C(C)C)NC(=O)[C@H](Cc2c[nH]c3ccccc23)NC(=O)[C@H](CC(=O)O)NC(=O)[C@H](Cc2ccc(OCC(=O)O)cc2)NC(=O)[C@H](CN)NC(=O)CSC[C@@H](C(=O)N[C@@H](C)C(N)=O)NC(=O)[C@H]([C@@H](C)O)NC(=O)[C@H](C(C)C)NC(=O)[C@H](CC2CCCCC2)NC(=O)[C@H](CCN)NC1=O ; field requested: IC50
result: 21.4

query: Query (molecule): CC(C)C[C@H]1NC(=O)[C@H](CCCN)NC(=O)[C@H](CN)NC(=O)[C@H](Cc2ccc(-c3ccccc3)cc2)NC(=O)[C@H](C(C)C)NC(=O)[C@H](Cc2c[nH]c3ccccc23)NC(=O)[C@H](CC(=O)O)NC(=O)[C@H](Cc2ccc(OCC(=O)O)cc2)NC(=O)[C@H](CC#N)NC(=O)CSC[C@@H](C(=O)N[C@@H](C)C(N)=O)NC(=O)[C@H](C(C)O)NC(=O)[C@H](C(C)C)NC(=O)[C@H](CC2CCCCC2)NC(=O)[C@H](CC(N)=O)NC1=O (stereo partly drawn) ; field requested: IC50
result: 103

query: Query (molecule): CC(C)C[C@H]1NC(=O)[C@H](CCCN)NC(=O)[C@H](CCC(=O)O)NC(=O)[C@H](Cc2ccc(-c3ccccc3)cc2)NC(=O)[C@H](C(C)C)NC(=O)[C@H](Cc2c[nH]c3ccccc23)NC(=O)[C@H](CC(=O)O)NC(=O)[C@H](Cc2ccc(C(=O)O)cc2)NC(=O)[C@H](Cc2ccc(OCC(=O)O)cc2)NC(=O)CSC[C@@H](C(=O)N[C@@H](C)C(N)=O)NC(=O)[C@H]([C@@H](C)O)NC(=O)[C@H](C(C)C)NC(=O)[C@H](CC2CCCCC2)NC(=O)[C@H](CCN)NC1=O ; field requested: IC50
result: 9.7

query: Query (molecule): Cc1cccc(C[C@@H]2NC(=O)[C@H](CC(=O)O)NC(=O)[C@H](Cc3ccc(OCC(=O)O)cc3)NC(=O)[C@H](CN)NC(=O)CSC[C@@H](C(=O)N[C@@H](C)C(N)=O)NC(=O)[C@H]([C@@H](C)O)NC(=O)[C@H](C(C)C)NC(=O)[C@H](CC3CCCCC3)NC(=O)[C@H](Cc3cnc[nH]3)NC(=O)[C@@H](CC(C)C)NC(=O)[C@H](CCCN)NC(=O)[C@H](C(C)C)NC(=O)[C@H](Cc3ccc(-c4ccccc4)cc3)NC(=O)[C@H](C(C)C)NC2=O)c1 ; field requested: IC50
result: 17.8

query: Query (molecule): CC(C)C[C@H]1NC(=O)[C@H](CCCN)NC(=O)[C@H](C(C)C)NC(=O)[C@H](Cc2ccc(-c3ccccc3)cc2)NC(=O)[C@H](C(C)C)NC(=O)[C@H](Cc2c[nH]c3ccccc23)NC(=O)[C@H](CC(=O)O)NC(=O)[C@H](Cc2ccc(O)cc2)NC(=O)[C@H](CN)NC(=O)CSC[C@@H](C(=O)N[C@@H](C)C(N)=O)NC(=O)[C@H]([C@@H](C)O)NC(=O)[C@H](C(C)C)NC(=O)[C@H](CC2CCCCC2)NC(=O)[C@H](CCN)NC1=O ; field requested: IC50
result: 6.4

query: Query (molecule): Cc1cccc(C[C@@H]2NC(=O)[C@H](CC(=O)O)NC(=O)[C@H](Cc3ccc(C(=O)O)cc3)NC(=O)[C@H](Cc3ccncc3)NC(=O)CSC[C@@H](C(=O)N[C@@H](C)C(N)=O)NC(=O)[C@H]([C@@H](C)O)NC(=O)[C@H](C(C)C)NC(=O)[C@H](CC3CCCCC3)NC(=O)[C@H](CCN)NC(=O)[C@@H](CC(C)C)NC(=O)[C@H](CCCN)NC(=O)[C@H](C3CC3)NC(=O)[C@H](Cc3ccc(-c4ccccc4)cc3)NC(=O)[C@H](C(C)C)NC2=O)c1 ; field requested: IC50
result: 8.5

query: Query (molecule): CC[C@H](C)[C@@H]1NC(=O)[C@H](Cc2ccc(-c3ccccc3)cc2)NC(=O)[C@H](C(C)C)NC(=O)[C@H](Cc2c[nH]c3ccccc23)NC(=O)[C@H](CC(=O)O)NC(=O)[C@H](Cc2ccc(O)cc2)NC(=O)[C@H](CN)NC(=O)CSC[C@@H](C(=O)N[C@@H](C)C(N)=O)NC(=O)[C@H]([C@@H](C)O)NC(=O)[C@H](C(C)C)NC(=O)[C@H](CC(C)C)NC(=O)[C@H](CCCNC(=N)N)NC(=O)[C@@H](CC(C)C)NC(=O)[C@H](CCCN)NC1=O [Compound 1141] ({CH2CO}-[Dap]YDWV[Bip]I[Orn][dL]RLVTCA-NH2; thioether N-14) ; field requested: IC50
result: 30.6
